As shown below, each of these compounds has a reported IC50 value.
Tested on: Candida albicans
Experiment: Antifungal activity against Candida albicans after 48 hrs by broth microdilution technique
Type: functional, organism-based

These solved cases illustrate the format of a correct answer.
CCCCSC(=S)n1ccnc1	1.29 µg/mL
Cn1nnc2ccccc21	> 50 µg/mL
CCCCCCCCCCCCCCCCSC(=S)n1ccnc1	> 50 µg/mL

Now for the compound whose IC50 we want.
Prompt: Observed IC50 on Candida albicans for C=CCSC(=S)n1cnc2ccccc21 , please.
Response: > 50 µg/mL

----------
Measured IC50 by item
Tested on: Candida parapsilosis
Test: Antifungal activity against Candida parapsilosis ATCC 22019 after 48 hrs by broth microdilution technique
Type: functional, organism-based
Details: Lodderomyces parapsilosis, ATCC 22019, 48 h

C=CCSC(=S)n1cncn1	> 50 µg/mL
CCCCCCCCSC(=S)n1ccnc1C	> 50 µg/mL
CCCCSC(=S)n1ccnc1	1.94 µg/mL
N#CCCCSC(=S)n1ccnc1	5.27 µg/mL

Prompt: Please give the measured IC50 for this molecule: OC(Cn1cncn1)(Cn1cncn1)c1ccc(F)cc1F [FLUCONAZOLE]
Response: 0.46 µg/mL

Prompt: Which measured IC50 value corresponds to CCCCCCCCSC(=S)n1ccnc1 ?
Response: > 50 µg/mL

Prompt: Would you kindly share the measured IC50 for CSC(=S)n1ccnc1C ?
Response: > 50 µg/mL

Prompt: I'd like to know its IC50. The molecule in question is C=CCSC(=S)n1ccnc1
Response: 2.09 µg/mL

----------
Test: Spermicidal activity in human semen assessed as sperm immobilization at 1.0 % w/v up to 30 seconds by phase contrast microscopy
Type: functional
property-label: Activity (%)
# number only, unit % dropped from output

C=CCSC(=S)n1cnc2ccccc21	100

Prompt: Param item = Cc1nccn1C(=S)SCCCC#N ; retrieve measured Activity.
Response: 95

Prompt: Give its Activity value. Item: C=CCSC(=S)n1ccnc1C
Response: 100

----------
Test system: Candida albicans
Assay: Antifungal activity against Candida albicans after 48 hrs by broth microdilution technique
Format: functional, organism-based
Below is a list of entries, each paired with its recorded IC50 value.
# unit: µg/mL | format: bare number

CSC(=S)n1ccnc1C	7.24
CCCCCCCCSC(=S)n1ccnc1C	7.21
Cc1nccn1C(=S)SCCCC#N	36

Now look at this one.
Prompt: Return reported IC50; argument: CCCCSC(=S)n1cnc2ccccc21
Response: 6.39

----------
Collected Activity values appear next to each entry.
Experiment: Spermicidal activity in human semen assessed as sperm immobilization at 1.0 % w/v up to 30 seconds by phase contrast microscopy
Format: functional
Supply the numeric figure in %, leaving out any unit text.

Some entries whose results are on file:
CCCCSC(=S)n1ccnc1C	100
Cc1ncc([N+](=O)[O-])n1CCO	0
CCCCSC(=S)n1cnc2ccccc21	100

Now examine the next entry.
Prompt: Value lookup for Activity; key = CCCCCCCCCCCCCCCCSC(=S)n1ccnc1
Response: 100
